# PROTOCOL_SUMMARY: photoluminescence quantum yield (fraction); solvent given as SMILES
# CONDITION_DESCRIPTION: in CCO
Values of photoluminescence quantum yield greater than or equal to 0.1 map to TRUE; values below map to FALSE.

COMPOUND | CATEGORY
CN1c2cc3nc4cc(Cl)c(Cl)cc4nc3cc2N(C)C1(C)C | TRUE
Cc1ccc(CN2/C(=C/C=C3\CCCC(/C=C/C4=[N+](Cc5ccc(C)cc5)c5ccccc5C4(C)C)=C3Cl)C(C)(C)c3ccccc32)cc1 | TRUE
CCOC(=O)c1cc(C(=O)O)nc2cc(OC)ccc12 | TRUE
COc1cc2c(cc1/C=C/C1=CC(=C(C#N)C#N)CC(C)(C)C1)c1ccccc1n2C | FALSE
Cc1ccc2cc3cc(C)ncc3cc2c1 | TRUE
C=C(C)C(CN1C(=O)c2cccc3c2c(cc2nc(C)oc23)C1=O)OO (stereo unspecified) | FALSE
Cc1nc2c(c[n+]1C)CN1C(=O)N([C@H]3O[C@@H](CO)[C@H](O)[C@@H]3O)C=CC1=N2 | TRUE
CC(=O)c1ccc2ccc3cccc4ccc1c2c34 | FALSE
Cn1cc(/C=C/C(=O)c2ccccc2)c2ccccc21 | TRUE
O=C1NC(=O)c2c1c1c3ccccc3[nH]c1c1[nH]c3ccccc3c21 | TRUE
CCOc1cc2c(cc1/C=C/C1=CC(=C(C#N)C#N)CC(C)(C)C1)c1ccccc1n2CC | FALSE
